test system: LOC_OS06G16330-cb003; experiment: thermal shift delta Tm vs DMSO control; higher = stronger stabilization (binding); settings: 12.5 µM; protein concentration 2 µM;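 further: purified Escherichia coli-expressed rice kinase domain construct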
Sequence (as listed by the source): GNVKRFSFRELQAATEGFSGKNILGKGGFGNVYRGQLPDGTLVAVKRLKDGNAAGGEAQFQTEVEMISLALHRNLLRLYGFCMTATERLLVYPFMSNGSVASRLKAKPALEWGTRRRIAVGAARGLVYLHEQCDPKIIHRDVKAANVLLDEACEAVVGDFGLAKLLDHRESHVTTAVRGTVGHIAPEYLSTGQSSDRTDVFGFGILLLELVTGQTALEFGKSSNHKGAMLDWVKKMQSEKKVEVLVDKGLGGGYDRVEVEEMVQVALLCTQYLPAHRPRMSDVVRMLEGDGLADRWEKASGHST
For each record, write down the corresponding thermal shift delta Tm.
One number for each entry, in °C.

Completed entries (count: 5):
{"columns": ["molecule", "result-unit", "test-value"],
 "data": [
  ["O=C(NOCC1CC1)c1ccc(F)c(F)c1Nc1ccc(I)cc1Cl", "°C", 0.69],
  ["CC(C)CCN1c2nc(Nc3cc(F)c(O)c(F)c3)ncc2N(C)C(=O)C1C (stereo not drawn)", "°C", 3.47],
  ["N#CCNC(=O)c1ccc(-c2ccnc(Nc3ccc(N4CCOCC4)cc3)n2)cc1", "°C", 7.69],
  ["O=C(/C=C/c1ccc2ccccc2n1)c1ccncc1", "°C", 1.41],
  ["Oc1cc(O)cc(/C=C/c2ccc(O)c(O)c2)c1", "°C", 1.4]
]}

Dear colleague, could you please provide thermal shift delta Tm for the molecules listed below?
1. C[C@H](NC(=O)/C(C#N)=C/c1cccc(Br)n1)c1ccccc1
2. NC1(c2ccc(-c3nc4ccn5c(=O)[nH]nc5c4cc3-c3ccccc3)cc2)CCC1
3. N#Cc1cnc(Nc2cc(NC[C@H]3CNCCO3)c(C(F)(F)F)cn2)cn1
4. Cn1c(Nc2ccc(C(F)(F)F)cc2)nc2cc(Oc3ccnc(-c4ncc(C(F)(F)F)[nH]4)c3)ccc21

RESULT:
1: -1.56; 2: 0.62; 3: 2.23; 4: 1.24

Dear colleague, could you please provide thermal shift delta Tm for the molecules listed below?
1. O=C1Nc2ccc(I)cc2/C1=C/c1cc(Br)c(O)c(Br)c1
2. Cc1ccc([N+](=O)[O-])cc1S(=O)(=O)N(C)/N=C/c1cnc2ccc(Br)cn12
3. CN(C)C/C=C/C(=O)Nc1cc2c(Nc3ccc(F)c(Cl)c3)ncnc2cc1O[C@H]1CCOC1 [Afatinib (BIBW2992) Dimaleate]
4. C=CCc1ccc(O)c(-c2ccc(O)c(CC=C)c2)c1

RESULT:
1: 1.63; 2: 7.74; 3: 2.05; 4: 0.47

###

tested on: LOC_OS01G70970-cb002; assay: thermal shift delta Tm vs DMSO control; higher = stronger stabilization (binding); conditions: 12.5 µM; protein concentration 2 µM
Structures can show the parent of a compound that is named as a salt.
Values of thermal shift delta Tm greater than or equal to 0.3 °C map to Y; values below map to N.

{"columns": ["compound", "class-label"],
 "data": [
  ["COc1cc2c3cc1Oc1c(OC)c(OC)cc4c1[C@@H](Cc1ccc(O)c(c1)Oc1ccc(cc1)C[C@@H]3N(C)CC2)N(C)CC4 [Berbamine (dihydrochloride)]", "N"],
  ["O=C(O[C@@H]1Cc2c(O)cc(O)cc2O[C@@H]1c1cc(O)c(O)c(O)c1)c1cc(O)c(O)c(O)c1 [(-)-Epigallocatechin Gallate]", "N"],
  ["CN(C)Cc1cccc(N=C(c2ccccc2)c2c(O)[nH]c3cc(C(=O)N(C)C)ccc23)c1", "N"],
  ["CC[C@@H]1C(=O)N(C)c2cnc(Nc3ccc(C(=O)N[C@H]4CC[C@H](N5CCN(CC6CC6)CC5)CC4)cc3OC)nc2N1C(C)C", "N"],
  ["CC(=O)O/N=C1/C(c2c(O)[nH]c3cc(Br)ccc23)=Nc2ccccc21", "N"]
]}

QUERY: Has `COc1cc2ncc(-c3ccccc3)nc2cc1OC` a recorded thermal shift delta Tm greater than or equal to 0.3 °C?
RESULT: Y

QUERY: Given the entry `CNC(=O)c1cc(Oc2ccc(NC(=O)Nc3ccc(Cl)c(C(F)(F)F)c3)c(F)c2)ccn1` , answer whether its thermal shift delta Tm meets or surpasses 0.3 °C.
RESULT: Y
